So I've got a bunch of sequences here, and I need their phosphorylation enrichment values.
system: c-Src; assay: phosphorylation enrichment, bacterial display (enrichment ratio); higher = better substrate or ligand; peptides without Tyr show the background;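 note: 11-residue human phosphosite peptides and single-mutation variants displayed on the E. coli surface, counted by deep sequencing, each peptide's frequency after selection divided by its frequency in the unselected input library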;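 note: frequency after pTyr selection over input frequency; kinase dosed for 20-30% of maximal phosphorylation in three min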

Looking for the measured phosphorylation enrichment of DLTQDSEEWKR [ORC6_Y232_Y232S] , can you help?
0.476

Looking for the measured phosphorylation enrichment of ICANKYMVESC [RPL10_Y75_K78E] , can you help?
0.53

Looking for the measured phosphorylation enrichment of CTTIFYNFMCN [TP53_Y234_H233Y_YF] , can you help?
1.69

Looking for the measured phosphorylation enrichment of RLKAKYAAATG [GLI3_Y933] , can you help?
0.529

Looking for the measured phosphorylation enrichment of GVRTIYTIDGS [DCLK2_Y124] , can you help?
1.6

Looking for the measured phosphorylation enrichment of HEKRAYICAHP [ACAD9_Y611_L606H] , can you help?
0.448

Looking for the measured phosphorylation enrichment of QEIATYRRQLE [KRT14_Y415_L418Q] , can you help?
0.583

Looking for the measured phosphorylation enrichment of KPGLKYVTYGN [GALNTL5_Y404] , can you help?
0.363

Looking for the measured phosphorylation enrichment of EAAFVYVISSA [WNT4_Y113_A114V] , can you help?
0.631

Looking for the measured phosphorylation enrichment of NTTIHYNFMCN [TP53_Y234_C229N_YF] , can you help?
0.46

Looking for the measured phosphorylation enrichment of PEIIAYQPYGK [PRKCG_Y529] , can you help?
0.523

Looking for the measured phosphorylation enrichment of LNPLIYTLKNA [OR4C46_Y285] , can you help?
3.03

Looking for the measured phosphorylation enrichment of HLWRIYFDITD [MMP27_Y307_YF] , can you help?
0.462

Looking for the measured phosphorylation enrichment of IFHLSYLHNCE [PDE6B_Y227_YF] , can you help?
0.431

Looking for the measured phosphorylation enrichment of RRYLYYYSYLL [PTEN_Y177_V175L] , can you help?
1.68

Looking for the measured phosphorylation enrichment of DENRFYTRAAS [RPS19_Y54_W52R] , can you help?
0.494

Looking for the measured phosphorylation enrichment of KLQKYYRKNPD [EHHADH_Y683_Q685K] , can you help?
0.275

Looking for the measured phosphorylation enrichment of YHLLPYTVRAM [PARS2_Y93] , can you help?
3.84

Looking for the measured phosphorylation enrichment of AFRRGYFDEEM [PLEC_Y2971_YF] , can you help?
0.6

Looking for the measured phosphorylation enrichment of TTICKYITPME [GUCY2C_Y839_S840I] , can you help?
0.458

Looking for the measured phosphorylation enrichment of NRLTDYYELLL [BBS10_Y536_P539L] , can you help?
1.69

Looking for the measured phosphorylation enrichment of PEVCDYGLGGG [GSTO1_Y239_A236V] , can you help?
0.611

Looking for the measured phosphorylation enrichment of NHQFDYTFHWT [CSNK1A1_Y294_D297H_YF] , can you help?
0.996

Looking for the measured phosphorylation enrichment of ASTDFYKRGDF [PDHA1_Y243_YF] , can you help?
0.52

Looking for the measured phosphorylation enrichment of CTTIHYNFMCI [TP53_Y234_N239I_YF] , can you help?
0.434

Looking for the measured phosphorylation enrichment of GNEEAYGSSHI [FAM171B_Y522_R524S] , can you help?
0.549

Looking for the measured phosphorylation enrichment of RGDTVYTVNCM [KBTBD13_Y404_R408C] , can you help?
2.45

Looking for the measured phosphorylation enrichment of YARECYSALPQ [SARS2_Y52_G51C] , can you help?
0.676
